Can you tell me IC50 for the items I'm about to list?
# measurement_target: recombinant human Meningioma Expressed Antigen 5 (MGEA5), also referred to as O-GlcNAcase (OGA) (Homo sapiens)
# Construct: Full length OGA enzyme was purchased at OnGene (cat #TP322411); purchased OnGene (so in the source)
# Sequence (O60502 whole entry): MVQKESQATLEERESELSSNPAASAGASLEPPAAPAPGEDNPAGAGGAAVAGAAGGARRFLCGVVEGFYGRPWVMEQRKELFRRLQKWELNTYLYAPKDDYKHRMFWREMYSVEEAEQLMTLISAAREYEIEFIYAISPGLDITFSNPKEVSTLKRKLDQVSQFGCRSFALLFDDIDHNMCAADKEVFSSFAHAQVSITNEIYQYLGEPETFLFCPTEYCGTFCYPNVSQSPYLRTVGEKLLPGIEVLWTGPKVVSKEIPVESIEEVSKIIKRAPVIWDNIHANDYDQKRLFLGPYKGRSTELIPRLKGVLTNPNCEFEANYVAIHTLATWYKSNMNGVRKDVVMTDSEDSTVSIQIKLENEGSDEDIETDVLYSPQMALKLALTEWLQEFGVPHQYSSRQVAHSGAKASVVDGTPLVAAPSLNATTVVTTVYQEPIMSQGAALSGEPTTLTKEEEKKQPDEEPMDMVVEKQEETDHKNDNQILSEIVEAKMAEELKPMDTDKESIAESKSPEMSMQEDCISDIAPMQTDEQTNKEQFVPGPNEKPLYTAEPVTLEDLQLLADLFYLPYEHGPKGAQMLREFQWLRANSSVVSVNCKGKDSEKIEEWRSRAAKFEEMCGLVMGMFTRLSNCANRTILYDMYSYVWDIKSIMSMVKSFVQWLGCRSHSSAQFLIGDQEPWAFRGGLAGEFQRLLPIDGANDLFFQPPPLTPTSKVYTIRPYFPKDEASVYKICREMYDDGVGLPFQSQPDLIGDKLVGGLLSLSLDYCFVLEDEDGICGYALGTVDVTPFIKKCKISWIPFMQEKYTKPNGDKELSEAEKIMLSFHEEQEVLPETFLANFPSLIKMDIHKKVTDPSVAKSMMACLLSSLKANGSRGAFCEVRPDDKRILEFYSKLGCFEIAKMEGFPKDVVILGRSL
# experiment: OGA biochemical assay: inhibition of hydrolysis of fluorescein mono-ß-D-N-Acetyl-Glucosamine (FM-GlcNAc), fluorescence readout
# cond: FM-GlcNAc substrate, read-out: Enzymatic hOGA, pIC50 (converted)
Numbers only, in nM.

Consider the worked cases shown below.
Cc1cnc(-n2ccc3c(Nc4c(Cl)cc(F)cc4Cl)nccc32)o1
501
Cc1ccnc(C(F)(F)F)c1Nc1nccc2c1ccn2CCC1CC1
4.9
Cc1cc(C(F)(F)F)nc(C)c1Nc1nccc2c1ccn2CC(F)(F)C(C)C
2.24
Cc1ccnc(C)c1Nc1nccc2c1ccn2CC(C)(C)C#N
2140
CCCCn1ccc2c(Nc3c(C)cc4c(c3C)OCCO4)nccc21
1.86

I would be grateful if you could provide IC50 for each of the following entries.
1. Cc1cc(F)cc(C)c1Nc1nccc2c1ccn2CC1CC(F)(F)C1
2. Cc1ccnc(C)c1Nc1nccc2c1ccn2CC1CC1(F)F (centres unmarked)
3. CCCCn1ccc2c(Nc3c(Cl)cccc3Cl)ncc(F)c21

Response:
1. 27.5
2. 91.2
3. 28.8

Respectfully, I request IC50 for each entry included below.
1. Cc1cncc(C(C)C)c1Nc1nccc2c1ccn2CC1COC1
2. Cc1cncc(C)c1Nc1nccc2c1ccn2CC1CC1(F)F (centres unmarked)
3. Clc1cccc(Cl)c1Nc1nccc2c1ccn2CCC1CC1
4. Cc1cc(F)cc(C(C)C)c1Nc1nccc2c1ccn2CC1CC(F)(F)C1
5. Cc1cc(C)c(Nc2nccc3c2ccn3CC(F)(F)C(C)C)c(OC(F)F)n1

Response:
[234, 151, 1.7, 6.03, 2.04]

Hey, can you go through the list below and give me IC50 for every item?
1. Cc1ccnc(C)c1Nc1nccc2c1ccn2CC1(F)CC1
2. CCCC(C)n1ccc2c(Nc3c(Cl)cccc3Cl)nccc21 (centres unmarked)
3. Cc1ccnc(C(F)F)c1Nc1nccc2c1ccn2CC1CCO1 (centres unmarked)
4. CCCCn1ccc2c(Nc3c(C)cc(C)c(Br)c3C)nccc21

Response:
1. 57.5
2. 53.7
3. 9.55
4. 3.8

---

Assign Enzymatic hOGA; pIC50 to each entry below.
# measurement_target: recombinant human Meningioma Expressed Antigen 5 (MGEA5), also referred to as O-GlcNAcase (OGA) (Homo sapiens)
# Construct: Full length OGA enzyme was purchased at OnGene (cat #TP322411); purchased OnGene (so in the source)
# experiment: OGA biochemical assay: inhibition of hydrolysis of fluorescein mono-ß-D-N-Acetyl-Glucosamine (FM-GlcNAc), fluorescence readout
# cond: FM-GlcNAc substrate
Numbers only.

A selection of reference data follows.
Cc1cncc(Cl)c1Nc1nccc2c1ccn2CC1CC1
7.54
Cc1cc(F)c(F)c(C)c1Nc1nccc2c1ccn2CC(C)(F)F
8.52
CCCCn1ccc2c(Nc3c(C)cnnc3C(C)C)nccc21
7.8
CCCCn1ccc2c(Nc3c(C)cncc3Cl)nccc21
7.95

Give Enzymatic hOGA; pIC50 for all compounds that follow.
1. Cc1ccnc(C(C)C)c1Nc1nccc2c1ccn2CC1CCCO1 (stereo not shown)
2. Cc1cc(Cl)cc(C)c1Nc1nccc2c1ccn2CC(C)(F)F
3. Fc1cc(Cl)c(Nc2nccc3c2ccn3CC2CCCO2)c(Cl)c1 (stereo not shown)
4. CCCCn1ccc2c(Nc3c(C)cnnc3C)nccc21
5. Cc1cc(C)c(Nc2nccc3c2ccn3CC(C)(F)F)c(C)c1
6. Cc1ccnc(C)c1Nc1nccc2c1ccn2CCC1CCO1 (stereo not shown)

Response:
[8.07, 8.57, 7.64, 6.94, 8.64, 6.61]
